Hey, just so you know, these numbers are from ChEMBL document CHEMBL1955828.

- System: Mycobacterium tuberculosis
- assay name: Antimycobacterial activity against Mycobacterium tuberculosis H37Rv after 6 days by MTT assay
- Format: functional, organism-based
- run conditions: 144 h
Entries and their measured log10(IC50) follow.
Values reflect log10 of reported IC50 (nM).

// solved cases for log10(IC50) follow
Cc1cccc(-c2cccc(COc3c4cc(CP(=O)(O)O)cc3Cc3cc(CP(=O)(O)O)cc(c3O)Cc3cc(CP(=O)(O)O)cc(c3OCc3cccc(-c5cccc(C)n5)n3)Cc3cc(CP(=O)(O)O)cc(c3O)C4)n2)n1    4.09
NCCc1cc2c(O)c(c1)Cc1cc(CCN)cc(c1O)Cc1cc(CCN)cc(c1O)Cc1cc(CCN)cc(c1O)C2    2.60
Cc1ccc(-c2ccc(COc3c4cc(CCN)cc3Cc3cc(CCN)cc(c3O)Cc3cc(CCN)cc(c3OCc3ccc(-c5ccc(C)cn5)nc3)Cc3cc(CCN)cc(c3O)C4)cn2)nc1    2.30
N=C(N)NCCc1cc2c(O)c(c1)Cc1cc(CCNC(=N)N)cc(c1O)Cc1cc(CCNC(=N)N)cc(c1O)Cc1cc(CCNC(=N)N)cc(c1O)C2.O=C(O)C(F)(F)F    2.40
Cc1csc(-c2nc(COc3c4cc(CCNC(=N)N)cc3Cc3cc(CCNC(=N)N)cc(c3O)Cc3cc(CCNC(=N)N)cc(c3OCc3csc(-c5nc(C)cs5)n3)Cc3cc(CCNC(=N)N)cc(c3O)C4)cs2)n1.O=C(O)C(F)(F)F    2.60

Now let's try a different one.
// map Cc1ccc(-c2ccc(COc3c4cc(CCNC(=N)N)cc3Cc3cc(CCNC(=N)N)cc(c3O)Cc3cc(CCNC(=N)N)cc(c3OCc3ccc(-c5ccc(C)cn5)nc3)Cc3cc(CCNC(=N)N)cc(c3O)C4)cn2)nc1.O=C(O)C(F)(F)F to recorded log10(IC50) (system: Mycobacterium tuberculosis)
1.70

* * *

Entries and their measured CC50 follow.
- assay name: Cytotoxicity against human MRC5 cells by MTT assay
- Assay type: cell-based
Supply the numeric figure in µg/mL, leaving out any unit text.

// solved cases for CC50 follow
Cc1csc(-c2nc(COc3c4cc(CCNC(=N)N)cc3Cc3cc(CCNC(=N)N)cc(c3O)Cc3cc(CCNC(=N)N)cc(c3OCc3csc(-c5nc(C)cs5)n3)Cc3cc(CCNC(=N)N)cc(c3O)C4)cs2)n1.O=C(O)C(F)(F)F    16
Cc1ccc(-c2ccc(COc3c4cc(CCNC(=N)N)cc3Cc3cc(CCNC(=N)N)cc(c3O)Cc3cc(CCNC(=N)N)cc(c3OCc3ccc(-c5ccc(C)cn5)nc3)Cc3cc(CCNC(=N)N)cc(c3O)C4)cn2)nc1.O=C(O)C(F)(F)F    128

Now let's try a different one.
// returns reported CC50 for input N=C(N)NCCc1cc2c(O)c(c1)Cc1cc(CCNC(=N)N)cc(c1O)Cc1cc(CCNC(=N)N)cc(c1O)Cc1cc(CCNC(=N)N)cc(c1O)C2.O=C(O)C(F)(F)F
256

* * *

Entries and their measured inhibition of growth at 1 µM follow.
- Tested on: Mycobacterium tuberculosis
- assay name: Antimycobacterial activity against Mycobacterium tuberculosis H37Rv at 1 uM after 6 days by MTT assay
- Format: functional
- run conditions: 144 h, read-out: GI
Supply the numeric figure in %, leaving out any unit text.

// solved cases for inhibition of growth at 1 µM follow
NCCc1cc2c(O)c(c1)Cc1cc(CCN)cc(c1O)Cc1cc(CCN)cc(c1O)Cc1cc(CCN)cc(c1O)C2    27
Cc1cccc(-c2cccc(COc3c4cc(CCN)cc3Cc3cc(CCN)cc(c3O)Cc3cc(CCN)cc(c3OCc3cccc(-c5cccc(C)n5)n3)Cc3cc(CCN)cc(c3O)C4)n2)n1    7

// returns reported inhibition of growth at 1 µM for input O=P(O)(O)Cc1cc2c(O)c(c1)Cc1cc(CP(=O)(O)O)cc(c1O)Cc1cc(CP(=O)(O)O)cc(c1O)Cc1cc(CP(=O)(O)O)cc(c1O)C2
0

// returns reported inhibition of growth at 1 µM for input Cc1csc(-c2nc(COc3c4cc(CCNC(=N)N)cc3Cc3cc(CCNC(=N)N)cc(c3O)Cc3cc(CCNC(=N)N)cc(c3OCc3csc(-c5nc(C)cs5)n3)Cc3cc(CCNC(=N)N)cc(c3O)C4)cs2)n1.O=C(O)C(F)(F)F
54

// returns reported inhibition of growth at 1 µM for input Cc1ccc(-c2ccc(COc3c4cc(CCNC(=N)N)cc3Cc3cc(CCNC(=N)N)cc(c3O)Cc3cc(CCNC(=N)N)cc(c3OCc3ccc(-c5ccc(C)cn5)nc3)Cc3cc(CCNC(=N)N)cc(c3O)C4)cn2)nc1.O=C(O)C(F)(F)F
62

* * *

- Test system: Mycobacterium tuberculosis
- assay name: Antimycobacterial activity against Mycobacterium tuberculosis H37Rv at 1 uM after 6 days by MTT assay
- Assay type: functional
- run conditions: 144 h, read-out: GI
metric name: inhibition of growth at 1 µM
Quick note: number first, unit second.

// solved cases for inhibition of growth at 1 µM follow
Cc1csc(-c2nc(COc3c4cc(CCN)cc3Cc3cc(CCN)cc(c3O)Cc3cc(CCN)cc(c3OCc3csc(-c5nc(C)cs5)n3)Cc3cc(CCN)cc(c3O)C4)cs2)n1    25%
N=C(N)NCCc1cc2c(O)c(c1)Cc1cc(CCNC(=N)N)cc(c1O)Cc1cc(CCNC(=N)N)cc(c1O)Cc1cc(CCNC(=N)N)cc(c1O)C2.O=C(O)C(F)(F)F    73%

Now let's try a different one.
// map Cc1ccc(-c2ccc(COc3c4cc(CCN)cc3Cc3cc(CCN)cc(c3O)Cc3cc(CCN)cc(c3OCc3ccc(-c5ccc(C)cn5)nc3)Cc3cc(CCN)cc(c3O)C4)cn2)nc1 to recorded inhibition of growth at 1 µM (system: Mycobacterium tuberculosis)
63%

* * *

- Test system: Mycobacterium tuberculosis
- assay name: Antimycobacterial activity against Mycobacterium tuberculosis H37Rv at 1 uM after 6 days by MTT assay
- Assay type: functional
- run conditions: 144 h, read-out: GI
metric name: inhibition of growth at 1 µM

O=C(O)Cc1cc2c(O)c(c1)Cc1cc(CC(=O)O)cc(c1O)Cc1cc(CC(=O)O)cc(c1O)Cc1cc(CC(=O)O)cc(c1O)C2    0%
Cc1cccc(-c2cccc(COc3c4cc(CCNC(=N)N)cc3Cc3cc(CCNC(=N)N)cc(c3O)Cc3cc(CCNC(=N)N)cc(c3OCc3cccc(-c5cccc(C)n5)n3)Cc3cc(CCNC(=N)N)cc(c3O)C4)n2)n1.O=C(O)C(F)(F)F    7%

Now let's try a different one.
// map O=S(=O)(O)c1cc2c(O)c(c1)Cc1cc(S(=O)(=O)O)cc(c1O)Cc1cc(S(=O)(=O)O)cc(c1O)Cc1cc(S(=O)(=O)O)cc(c1O)C2 to recorded inhibition of growth at 1 µM (system: Mycobacterium tuberculosis)
0%
